- target.or.system: NEMO (221-260) peptide (Homo sapiens, UniProt Q9Y6K9)
- Construct: host or cells: chemical synthesis
- Sequence (Q9Y6K9 222-261, one chain of several): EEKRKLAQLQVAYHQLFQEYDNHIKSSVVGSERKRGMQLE
- protocol: Surface Plasmon Resonance kinetics of CARP-1 peptide binding with NEMO peptide
- setup.conditions: SPR, chemically synthesized peptides; read-out: equilibrium dissociation constant (KD Value)
Ends that are not written are not given here.
measured.attribute: Kd (nM)
Please state the figure in nM; there is no need to write the unit.

Entry HRPEETHKGRTVPAHVETVVLFFPDVWHCL [CARP-1 (551-580)] : Kd on NEMO (221-260) peptide (Homo sapiens, UniProt Q9Y6K9) = 102

====

- protocol: MTT cell viability
- Assay type: cell-based, murine
- setup.conditions: mouse, 4T1 TNBC cells; 1.0, 2.5, 5.0, or 10.0 μM over 24 h; read-out: loss of viability
measured.attribute: cytotoxicity at 24 h

Reported cytotoxicity at 24 h of Cc1ccc(-n2nnnc2SCC(=O)c2ccc(O)c(O)c2)cc1 : 10 to 20%

====

- Test system: follicular cell lymphoma cells
- protocol: Cell viability, lymphoma
- Format: cell-based
- setup.conditions: Homo sapiens; read-out: IC50, reduced viabilities
measured.attribute: IC50

Reported IC50 of Cc1ccc(-n2nnnc2SCC(=O)c2ccc(O)c(O)c2)cc1 : ~7.5 µM

====

- target.or.system: Flag-CARP-1 (546-580) binding with Biotin-NEMO (221-261) (Homo sapiens, UniProt Q8IX12)
- Construct: Flag-tagged CARP-1 (546-580); purchased Peptides America, Fairfax, Va; host or cells: chemical synthesis
- protocol: AlphaLISA assay of CARP-1/NEMO peptide binding (HTS format)
- setup.conditions: read-out: IC50, inhibition of binding of CARP-1 (546-580) with NEMO (221-261) peptide
measured.attribute: IC50

Reported IC50 of COc1ccc(S(=O)(=O)Nc2ccccc2C(=O)NCCc2ccccc2)cc1 : ~25 µM

====

- target.or.system: Flag-CARP-1 (546-580) binding with Biotin-NEMO (221-261) (Homo sapiens)
- Construct: Flag-tagged CARP-1 (546-580); purchased Peptides America, Fairfax, Va; host or cells: chemical synthesis
- Sequence (Q8IX12 546-580 limits assumed): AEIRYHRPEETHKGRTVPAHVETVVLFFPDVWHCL
- protocol: AlphaLISA assay of CARP-1/NEMO peptide binding (HTS format)
- setup.conditions: biphasic, read-out: IC50, inhibition of binding of CARP-1 (546-580) with NEMO (221-261) peptide
measured.attribute: IC50

Reported IC50 of Cc1ccc(-n2nnnc2SCC(=O)c2ccc(O)c(O)c2)cc1 : ~0.3 µM

====

- protocol: MTT cell viability
- Format: cell-based, human
- setup.conditions: human, MDA-MB-231 TNBC cells; 1.0, 2.5, 5.0, or 10.0 μM over 24 h; read-out: loss of viability
measured.attribute: cytotoxicity at 24 h

Reported cytotoxicity at 24 h of Cc1ccc(-n2nnnc2SCC(=O)c2ccc(O)c(O)c2)cc1 [SNI-1] : 10 to 20%

From: patent US20210106567A1
